Assay: Lipophilicity, log D of the compound at pH 7.4
Type: physicochemical
Details: buffer
Quantity: logD
# output: bare number, no unit

Reference set, count: 3
Compound	logD
O=C1NC2(CCCC2)C(=O)Nc2ccc(S(=O)(=O)Nc3ccc(Cl)cc3)cc21	3
CCCC1(C)NC(=O)c2cc(S(=O)(=O)Nc3ccc(F)cc3F)ccc2NC1=O (racemic)	2.2
CCC1(C)NC(=O)c2cc(S(=O)(=O)NC3CCCCC3)ccc2NC1=O (racemic)	2

Please look up its logD: CCC1(C)NC(=O)c2cc(S(=O)(=O)Nc3ccc(C(F)(F)F)cc3)ccc2NC1=O (racemic) 3.1

Also CCC1(C)NC(=O)c2cc(S(=O)(=O)Nc3ccccc3Cl)ccc2NC1=O (racemic) ? 1.9

Also CCC1(C)NC(=O)c2cc(S(=O)(=O)Nc3ccccc3)ccc2NC1=O (racemic) ? 1.9

Also `CCC1(CC)NC(=O)c2cc(S(=O)(=O)Nc3ccc(F)cc3F)ccc2NC1=O` ? 2.2

Also CCC1(C)NC(=O)c2cc(S(=O)(=O)Nc3ccc(OC)cc3)ccc2NC1=O (racemic) ? 1.8

Also CCC1(C)NC(=O)c2cc(S(=O)(=O)Nc3ccc(F)cc3F)ccc2NC1=O (racemic) ? 1.8

---

Assay: Dissociation constant, pKa of the compound
Format: physicochemical
Quantity: pKa
# output: bare number, no unit

Reference set, count: 4
Compound	Quantity	Recorded result
CCC1(CC)CNc2ccc(S(=O)(=O)Nc3ccc(F)cc3F)cc2C(=O)N1	pKa	8
CCC1(C)NC(=O)c2cc(S(=O)(=O)Nc3ccc(Cl)cc3)ccc2NC1=O (racemic)	pKa	8.1
CC[C@]1(C)NC(=O)c2cc(S(=O)(=O)Nc3ccc(C(F)(F)F)cc3)ccc2NC1=O	pKa	6.9
CC[C@]1(C)NC(=O)c2cc(S(=O)(=O)Nc3ccc(OC(F)F)cc3)ccc2NC1=O	pKa	7.9

Please look up its pKa: CCC1(C)NC(=O)c2cc(S(=O)(=O)Nc3ccccc3Cl)ccc2NC1=O (racemic) 7.2

Also CCC1(C)NC(=O)c2cc(S(=O)(=O)Nc3ccccc3)ccc2NC1=O (racemic) ? 8.7

Also CCC1(C)NC(=O)c2cc(S(=O)(=O)Nc3ccc(OC)cc3)ccc2NC1=O (racemic) ? 5.6

Also CCC1(C)NC(=O)c2cc(S(=O)(=O)Nc3ccc(Cl)cc3)ccc2N(C)C1=O (racemic) ? 7.9

Also `CC[C@]1(C)NC(=O)c2cc(S(=O)(=O)Nc3ccc(F)cc3F)ccc2NC1=O` ? 7.3

Also CCC1(C)C(=O)Nc2ccc(S(=O)(=O)Nc3ccc(F)cc3F)cc2C(=O)N1C (racemic) ? 7.1

---

# Papp A→B at 2 h, 10 µM listing for each entry below
Experiment: Apparent permeability from apical side to basolateral side of human Caco2 cells at 10 umol/l measured up to 120 mins by LCMS analysis
Assay type: ADME, cell-based
Settings: Caco-2
Report the figure along with its unit, number first.

Reference set, count: 10
Compound	Papp A→B at 2 h, 10 µM
CCC1(C)NC(=O)c2cc(S(=O)(=O)N(C)c3ccccc3)ccc2NC1=O (racemic)	36 ×10⁻⁶ cm/s
CCC1(C)NC(=O)c2cc(S(=O)(=O)Nc3ccccc3Cl)ccc2NC1=O (racemic)	6.4 ×10⁻⁶ cm/s
CCC1(CC)CNc2ccc(S(=O)(=O)Nc3ccc(F)cc3F)cc2C(=O)N1	16 ×10⁻⁶ cm/s
CCC1(C)C(=O)Nc2ccc(S(=O)(=O)Nc3ccc(F)cc3F)cc2C(=O)N1C (racemic)	8.1 ×10⁻⁶ cm/s
CC[C@]1(C)NC(=O)c2cc(S(=O)(=O)Nc3ccc(C(F)(F)F)cc3)ccc2NC1=O	3.1 ×10⁻⁶ cm/s
CCC1(C)NC(=O)c2cc(S(=O)(=O)Nc3ccc(Cl)cc3)ccc2NC1=O (racemic)	5.5 ×10⁻⁶ cm/s
CCC1(C)NC(=O)c2cc(S(=O)(=O)Nc3ccccc3)ccc2NC1=O (racemic)	2.4 ×10⁻⁶ cm/s
CCC1(C)NC(=O)c2cc(S(=O)(=O)Nc3ccc(Cl)cc3)ccc2N(C)C1=O (racemic)	20 ×10⁻⁶ cm/s
CCC1(C)NC(=O)c2cc(S(=O)(=O)Nc3ccc(OC)cc3)ccc2NC1=O (racemic)	1.5 ×10⁻⁶ cm/s
CC[C@]1(C)NC(=O)c2cc(S(=O)(=O)Nc3ccc(F)cc3F)ccc2NC1=O	3.3 ×10⁻⁶ cm/s

Could you now consider this next compound?
Please look up its Papp A→B at 2 h, 10 µM: `CC[C@]1(C)NC(=O)c2cc(S(=O)(=O)Nc3ccc(OC(F)F)cc3)ccc2NC1=O` 1.1 ×10⁻⁶ cm/s
